# credit: PubChem BioAssay (NCI)

Tested on: HS 578T breast
Assay: NCI tumour cell line growth inhibition, 48 h
OBSERVATION TYPE: TGI

# COMPOUND, OBSERVATION TYPE, RESULT
measured = [
    ("Cc1ccc(S(=O)(=O)NC(CN)C(=O)O)cc1 (stereo not given)", "TGI", "> 100 µM"),
    ("COC(=O)c1ccc(NC(=O)Oc2ccc(N(CCCl)CCCl)cc2)cc1", "TGI", "97.9 µM"),
    ("O=C(CCc1ccccc1)On1c(-c2ccccc2)nc2ccccc2c1=S", "TGI", "> 100 µM"),
    ("C=C1C(=O)OC2/C=C(/C)C(OC(C)=O)C/C=C(\\C)C(OC(=O)C3(C)OC3C)C(O)C12 (stereo not given)", "TGI", "> 100 µM"),
    ("O=C1c2cn[nH]c2C(c2ccccc2)N1c1ccccc1 (stereo not given)", "TGI", "> 10 µM"),
    ("CN(CCCNC(=O)CCOCCOCCOCCNC(=O)Cc1ccc2ccc3cccc4ccc1c2c34)CCCNc1cc(-c2ccc3ccccc3c2)nc2ccccc12", "TGI", "11.5 µM"),
    ("O=C(CC(Cl)=C(Cl)Cl)c1cccc(Cl)c1Cl", "TGI", "> 100 µM"),
    ("COc1cc(C2c3cc4c(cc3OC(N3CCNCC3)C2C)OCO4)cc(OC)c1OC (stereo not given)", "TGI", "3.35 µM"),
    ("COc1ccc(N(C)c2nc(N)nc3sc4c(c23)CCCC4)cc1", "TGI", "10.3 µM"),
    ("COc1ccccc1C[C@@H]1OC2(C=CC(=O)C=C2)O[C@H]1Cc1ccccc1OC", "TGI", "29.3 µM"),
    ("COc1cc2c(=O)[nH]c3cc([N+](=O)[O-])ccc3c2cc1[N+](=O)[O-]", "TGI", "> 100 µM"),
    ("CCn1c(-c2nonc2N)nc2cncc(C(=O)N3CC[C@H](N)C3)c21", "TGI", "> 25 µM"),
    ("CC[C@H](C)[C@H](NC(=O)[C@H]1CCCCN1C)C(=O)N(C)[C@H](C[C@@H](OC(C)=O)c1nc(C(=O)N[C@@H](Cc2ccccc2)C[C@H](C)C(=O)O)cs1)C(C)C", "TGI", "> 16.5 µM"),
    ("CC(=O)N(O)c1ccc(-c2nc3ccccc3s2)cc1", "TGI", "> 100 µM"),
    ("S=C(Nc1ccc2cn[nH]c2c1)Nc1ccc2cn[nH]c2c1", "TGI", "> 100 µM"),
    ("COc1cc(-c2nn(-c3cccc(NC(=O)c4ccc(Cl)c(C(F)(F)F)c4)c3)cc2-c2ccncc2)ccc1Cl", "TGI", "> 29.5 µM"),
    ("O=C(Nc1nc2ccccc2s1)Nc1ccc([N+](=O)[O-])cc1Cl", "TGI", "> 20.8 µM"),
    ("CC(=N\\N)/C(C)=N/N=C(C)/C(C)=N/N=C(C)/C(C)=N/N", "TGI", "> 100 µM"),
    ("CN(C)C(=S)SCC(=O)Nc1ccccc1", "TGI", "> 100 µM"),
    ("c1ccc2c3c([nH]c2c1)C(c1ccc(C2NCCc4c2[nH]c2ccccc42)cc1)NCC3 (stereo not given)", "TGI", "3.82 µM"),
]
